# assaySystem: T1, cTnI quality control product recombinant protein (human, UniProt P19429 1-210, limits assumed)
# T1 construct: the assay paragraphs only say cTnI; also called cardiac troponin I; cTnI antigen
# T1 sequence (P19429 whole entry): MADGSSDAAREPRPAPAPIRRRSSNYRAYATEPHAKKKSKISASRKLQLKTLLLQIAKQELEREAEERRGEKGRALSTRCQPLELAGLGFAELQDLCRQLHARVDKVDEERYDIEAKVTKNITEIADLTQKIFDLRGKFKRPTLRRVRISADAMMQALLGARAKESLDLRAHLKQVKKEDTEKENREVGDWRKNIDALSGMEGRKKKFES
# assayOverview: capture ELISA, antibody 12.346 ng/ml, cTnI 0.15 ug/ml
outcomeMeasure: OD 450 nm (OD)

{"binder": "Mutation 1 (antibody, V domains shown, other CDR sites as WT) VH: QVQLQQSGTELAKPGASVKFSCKASGYTFSTYWMYWIKQRPGQGLEWIGYLNPSSGHTDYNQRFKDKATLTADKSSSTAYMQLNSLTSEDSAVYYCARKYFGPFGMDYWGQGTSVTVSS VL: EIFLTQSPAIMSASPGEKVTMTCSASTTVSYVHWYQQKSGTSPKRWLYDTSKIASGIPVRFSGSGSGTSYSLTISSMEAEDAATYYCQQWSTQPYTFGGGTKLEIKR", "endpointResult": 2.34}
